This collection of values is drawn from patent US9963462B2.

Listing of entries alongside the reported pIC50.
- Tested System: SNAP-hSPR (sepiapterin reductase, SPR) (Homo sapiens, UniProt P35270)
- Sequence (P35270 whole entry): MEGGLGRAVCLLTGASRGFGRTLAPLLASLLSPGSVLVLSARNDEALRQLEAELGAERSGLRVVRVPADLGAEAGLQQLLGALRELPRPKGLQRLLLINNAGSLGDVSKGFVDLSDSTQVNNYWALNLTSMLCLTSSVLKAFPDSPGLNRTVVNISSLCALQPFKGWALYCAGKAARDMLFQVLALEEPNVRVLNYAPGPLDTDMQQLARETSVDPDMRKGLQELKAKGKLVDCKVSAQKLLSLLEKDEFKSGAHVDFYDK
pIC50 is a log-scale quantity: -log10 of the concentration expressed in molar.

Recorded pIC50, per entry:
Note down pIC50 recorded for Cc1c(C(=O)N2CCc3[nH]nc(C(F)(F)F)c3C2)cnn1-c1nn2cccc2c(=O)[nH]1 [Q-2031] 8.52

Note down pIC50 recorded for Cc1c(C(=O)N2CCN(C3CC3C(F)(F)F)CC2)cnn1-c1nn2cccc2c(=O)[nH]1 (stereo not drawn) [Q-1240] 9.00

Note down pIC50 recorded for Cc1c(C(=O)N2CC(c3ccc(F)c(F)c3)C2)cnn1-c1nn2cccc2c(=O)[nH]1 [Q-0771] 9.00

Note down pIC50 recorded for Cc1c(C(=O)N2CC3CCC(C2)C3(O)C(F)(F)F)cnn1-c1nn2cccc2c(=O)[nH]1 (stereo not drawn) [Q-0837] 9.00

Okay, next one:
Note down pIC50 recorded for Cc1c(C(=O)N2C3CCC2CC(F)(F)C3)cnn1-c1nn2cccc2c(=O)[nH]1 [Q-0910] 8.70
